Values were extracted from ChEMBL document CHEMBL4229500.

Molecular target: Transient receptor potential cation channel subfamily A member 1 (Rattus norvegicus)
Assay: Antagonist activity at rat TRPA1 expressed in HEK293 cells assessed as inhibition of AITC-induced increase in intracellular calcium level pretreated for 5 mins followed by AITC addition by fluo-4-AM dye based fluorescence assay
pIC50: −log10 of the molar value.
Outcome: TRUE for pIC50 of at least 6; FALSE for anything lower.

> print(dat)
                                   compound  class.name
1  CCCCCc1cc(O)c2c(c1)O[C@]1(C2)[C@H](C)CCCC1(C)C       FALSE
2  CCCCCc1cc(O)c2c(c1)OC(C)(CCCC(C)(C)c1ccc(C)cc1)CC2 (stereo unspecified)        TRUE
3  CCCCCc1cc(O)c2c(c1)O[C@]1(C)CCCC(C)(C)[C@H]1C2        TRUE
4  CCCCCc1cc(O)c2c(c1)O[C@@]1(C)CCCC(C)(C)[C@H]1C2        TRUE
5  CCCCCc1cc(O)c2c(c1)O[C@]1(C)CC[C@@H](I)C(C)(C)[C@H]1C2       FALSE
6  CCCCCc1cc(O)c2c(c1)O[C@]1(C2)[C@@H](C)CCCC1(C)C        TRUE

---

Target: Transient receptor potential cation channel subfamily V member 4 (Rattus norvegicus, UniProt Q9ERZ8)
Test: Agonist activity at rat TRPV4 expressed in HEK293 cells assessed as increase in intracellular calcium level by Fluo-4-AM dye based fluorescence assay
Type: cell-based
Conditions: read-out: EC50
experimental_readout: EC50

> print(dat)
                                   compound  reported
1  CCCCCc1cc(O)c2c(c1)OC(C)(CCCC(C)(C)c1ccc(C)cc1)CC2 (configuration not stated)     18 µM
2  CCCCCc1cc(O)c2c(c1)O[C@]1(C2)[C@@H](C)CCCC1(C)C    3.3 µM

---

Biological target: Transient receptor potential cation channel subfamily V member 4 (Rattus norvegicus) (UniProt Q9ERZ8)
Sequence (Q9ERZ8 whole entry): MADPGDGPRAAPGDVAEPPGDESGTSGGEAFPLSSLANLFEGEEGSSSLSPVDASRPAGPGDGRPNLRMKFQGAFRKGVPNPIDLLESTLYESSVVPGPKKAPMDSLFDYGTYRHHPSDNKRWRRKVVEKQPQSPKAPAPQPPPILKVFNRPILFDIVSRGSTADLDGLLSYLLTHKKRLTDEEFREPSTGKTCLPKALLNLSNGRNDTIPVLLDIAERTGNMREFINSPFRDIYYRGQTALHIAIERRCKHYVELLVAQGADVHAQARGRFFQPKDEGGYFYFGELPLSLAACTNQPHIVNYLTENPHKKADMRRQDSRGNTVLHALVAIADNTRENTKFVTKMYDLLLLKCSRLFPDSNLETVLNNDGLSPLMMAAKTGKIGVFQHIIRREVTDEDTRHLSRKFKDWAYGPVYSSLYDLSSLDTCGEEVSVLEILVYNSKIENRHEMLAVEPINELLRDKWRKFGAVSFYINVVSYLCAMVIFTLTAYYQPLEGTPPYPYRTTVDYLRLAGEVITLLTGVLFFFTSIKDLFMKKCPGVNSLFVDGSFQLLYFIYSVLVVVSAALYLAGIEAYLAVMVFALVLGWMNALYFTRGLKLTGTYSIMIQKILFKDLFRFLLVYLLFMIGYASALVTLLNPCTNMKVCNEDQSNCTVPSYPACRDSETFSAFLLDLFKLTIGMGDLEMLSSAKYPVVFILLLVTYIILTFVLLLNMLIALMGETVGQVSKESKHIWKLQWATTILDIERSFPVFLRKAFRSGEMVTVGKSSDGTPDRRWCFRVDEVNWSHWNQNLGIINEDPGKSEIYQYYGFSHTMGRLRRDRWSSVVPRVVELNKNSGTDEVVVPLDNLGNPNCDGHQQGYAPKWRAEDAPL
Experiment: Agonist activity at rat TRPV4 expressed in HEK293 cells assessed as increase in intracellular calcium level by Fluo-4-AM dye based fluorescence assay relative to ionomycin
Format: cell-based
Quick reference: Efficacy of the listed items.
experimental_readout: Efficacy

> print(dat)
                                   compound  reported
1  CCCCCc1cc(O)c2c(c1)OC(C)(CCCC(C)(C)c1ccc(C)cc1)CC2 (stereo unspecified)       18%
2  CCCCCc1cc(O)c2c(c1)O[C@]1(C2)[C@@H](C)CCCC1(C)C     13.9%
3  CCCCCc1cc(O)c2c(c1)O[C@]1(C)CCCC(C)(C)[C@H]1C2     < 10%
4  CCCCCc1cc(O)c2c(c1)O[C@]1(C)CC[C@@H](I)C(C)(C)[C@H]1C2     < 10%
5  CCCCCc1cc(O)c2c(c1)O[C@]1(C2)[C@H](C)CCCC1(C)C     < 10%
6  CCCCCc1cc(O)c2c(c1)O[C@@]1(C)CCCC(C)(C)[C@H]1C2     < 10%

---

Biological target: Transient receptor potential cation channel subfamily A member 1 (Rattus norvegicus, UniProt Q6RI86)
Sequence (Q6RI86 whole entry): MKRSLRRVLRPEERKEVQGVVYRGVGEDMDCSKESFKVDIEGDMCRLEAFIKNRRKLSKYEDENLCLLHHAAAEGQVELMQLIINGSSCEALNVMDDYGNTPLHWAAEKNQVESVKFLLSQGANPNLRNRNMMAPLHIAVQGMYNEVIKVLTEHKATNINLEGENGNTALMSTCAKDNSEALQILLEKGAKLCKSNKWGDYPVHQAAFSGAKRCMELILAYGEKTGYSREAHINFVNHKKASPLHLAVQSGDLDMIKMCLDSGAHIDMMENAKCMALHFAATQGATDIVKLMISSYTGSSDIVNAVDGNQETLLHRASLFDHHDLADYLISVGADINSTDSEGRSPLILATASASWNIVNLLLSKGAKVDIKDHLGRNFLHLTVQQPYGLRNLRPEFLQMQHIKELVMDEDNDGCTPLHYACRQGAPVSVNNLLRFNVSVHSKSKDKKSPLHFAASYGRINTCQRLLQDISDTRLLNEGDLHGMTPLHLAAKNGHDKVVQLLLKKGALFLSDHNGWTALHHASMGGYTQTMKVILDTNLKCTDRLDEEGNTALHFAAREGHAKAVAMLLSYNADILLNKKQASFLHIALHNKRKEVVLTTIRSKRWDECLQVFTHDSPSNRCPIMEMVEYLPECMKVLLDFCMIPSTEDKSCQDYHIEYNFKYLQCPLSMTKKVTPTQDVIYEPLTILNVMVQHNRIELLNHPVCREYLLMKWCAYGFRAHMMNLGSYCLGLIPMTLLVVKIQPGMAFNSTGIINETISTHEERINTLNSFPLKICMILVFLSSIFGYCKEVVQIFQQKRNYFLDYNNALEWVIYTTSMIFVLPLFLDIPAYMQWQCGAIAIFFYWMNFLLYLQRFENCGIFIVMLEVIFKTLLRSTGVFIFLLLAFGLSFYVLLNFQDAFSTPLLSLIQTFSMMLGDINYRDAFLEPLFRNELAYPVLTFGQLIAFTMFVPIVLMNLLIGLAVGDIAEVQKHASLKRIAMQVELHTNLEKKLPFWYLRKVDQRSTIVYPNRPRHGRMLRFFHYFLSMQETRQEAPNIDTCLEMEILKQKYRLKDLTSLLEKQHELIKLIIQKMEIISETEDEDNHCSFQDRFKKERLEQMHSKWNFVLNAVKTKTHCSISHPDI
Assay: Agonist activity at rat TRPA1 expressed in HEK293 cells assessed as increase in intracellular calcium level by fluo-4-AM dye based fluorescence assay
Type: cell-based
pEC50: −log10 of the molar value.
experimental_readout: pEC50

> print(dat)
                                   molecule  reported
1  CCCCCc1cc(O)c2c(c1)OC(C)(CCCC(C)(C)c1ccc(C)cc1)CC2 (stereo unspecified)      6.46
2  CCCCCc1cc(O)c2c(c1)O[C@]1(C)CCCC(C)(C)[C@H]1C2      6.64
3  CCCCCc1cc(O)c2c(c1)O[C@]1(C2)[C@@H](C)CCCC1(C)C      6.31
4  CCCCCc1cc(O)c2c(c1)O[C@@]1(C)CCCC(C)(C)[C@H]1C2      6.54
5  CCCCCc1cc(O)c2c(c1)O[C@]1(C)CC[C@@H](I)C(C)(C)[C@H]1C2      5.70
6  CCCCCc1cc(O)c2c(c1)O[C@]1(C2)[C@H](C)CCCC1(C)C      5.89

---

Target: Transient receptor potential cation channel, subfamily V, member 3 (Rattus norvegicus)
Sequence (E9PU00 whole entry): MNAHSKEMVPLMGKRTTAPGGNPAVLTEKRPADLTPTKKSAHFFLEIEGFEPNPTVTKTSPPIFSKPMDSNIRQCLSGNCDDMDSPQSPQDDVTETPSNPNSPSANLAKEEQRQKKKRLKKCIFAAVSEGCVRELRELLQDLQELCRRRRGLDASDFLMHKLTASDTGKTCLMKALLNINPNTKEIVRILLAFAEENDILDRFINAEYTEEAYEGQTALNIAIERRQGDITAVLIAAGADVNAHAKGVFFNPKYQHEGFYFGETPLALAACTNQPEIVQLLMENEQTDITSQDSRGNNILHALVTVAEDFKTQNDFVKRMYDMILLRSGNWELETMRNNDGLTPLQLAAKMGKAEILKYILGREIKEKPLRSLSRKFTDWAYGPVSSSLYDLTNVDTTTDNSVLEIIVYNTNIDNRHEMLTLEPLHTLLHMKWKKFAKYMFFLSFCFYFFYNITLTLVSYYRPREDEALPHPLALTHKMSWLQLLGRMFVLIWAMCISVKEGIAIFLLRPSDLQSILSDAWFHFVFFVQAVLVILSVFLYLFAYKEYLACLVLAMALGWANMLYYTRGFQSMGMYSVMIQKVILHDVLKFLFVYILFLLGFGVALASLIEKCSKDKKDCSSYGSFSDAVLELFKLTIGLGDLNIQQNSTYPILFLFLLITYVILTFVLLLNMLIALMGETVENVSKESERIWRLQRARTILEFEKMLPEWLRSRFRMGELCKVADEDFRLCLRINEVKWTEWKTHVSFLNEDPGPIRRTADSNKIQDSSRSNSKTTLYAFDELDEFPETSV
Assay: Agonist activity at […] expressed in HEK293 cells assessed as increase in intracellular calcium level by Fluo-4-AM dye based fluorescence assay
Type: cell-based
Conditions: read-out: EC50
experimental_readout: EC50 (µM)

> print(dat)
                               smiles.input  experimental.readout  reported
1  CCCCCc1cc(O)c2c(c1)O[C@@]1(C)CCCC(C)(C)[C@H]1C2                  EC50       6.7

---

Biological target: Transient receptor potential cation channel subfamily V member 2 (Rattus norvegicus)
Sequence (Q9WUD2 whole entry): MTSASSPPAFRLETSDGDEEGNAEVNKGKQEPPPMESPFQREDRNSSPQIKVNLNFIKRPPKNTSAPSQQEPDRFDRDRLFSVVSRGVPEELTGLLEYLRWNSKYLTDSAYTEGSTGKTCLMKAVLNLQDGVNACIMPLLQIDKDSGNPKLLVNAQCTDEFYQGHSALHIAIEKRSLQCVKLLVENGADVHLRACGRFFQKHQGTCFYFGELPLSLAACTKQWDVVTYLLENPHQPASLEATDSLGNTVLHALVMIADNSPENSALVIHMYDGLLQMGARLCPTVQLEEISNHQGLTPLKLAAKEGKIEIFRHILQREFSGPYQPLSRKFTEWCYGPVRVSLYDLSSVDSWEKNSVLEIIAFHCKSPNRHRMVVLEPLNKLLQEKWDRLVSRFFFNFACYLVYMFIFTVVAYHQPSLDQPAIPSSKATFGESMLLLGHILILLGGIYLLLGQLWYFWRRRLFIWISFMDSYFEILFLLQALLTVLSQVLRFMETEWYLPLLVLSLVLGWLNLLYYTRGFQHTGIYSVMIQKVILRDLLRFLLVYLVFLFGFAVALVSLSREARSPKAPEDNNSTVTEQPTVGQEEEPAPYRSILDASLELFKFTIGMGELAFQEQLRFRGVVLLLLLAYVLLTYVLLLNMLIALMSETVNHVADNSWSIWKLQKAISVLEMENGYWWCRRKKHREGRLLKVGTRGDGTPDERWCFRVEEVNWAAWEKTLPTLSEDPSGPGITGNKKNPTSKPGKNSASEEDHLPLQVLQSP
Test: Agonist activity at rat TRPV2 expressed in HEK293 cells assessed as increase in intracellular calcium level by Fluo-4-AM dye based fluorescence assay
Type: cell-based
Settings: read-out: EC50
experimental_readout: EC50

> print(dat)
                               smiles.input  reported
1  CCCCCc1cc(O)c2c(c1)O[C@@]1(C)CCCC(C)(C)[C@H]1C2    5.8 µM
2  CCCCCc1cc(O)c2c(c1)O[C@]1(C2)[C@H](C)CCCC1(C)C    6.4 µM
3  CCCCCc1cc(O)c2c(c1)O[C@]1(C2)[C@@H](C)CCCC1(C)C    4.7 µM
4  CCCCCc1cc(O)c2c(c1)O[C@]1(C)CCCC(C)(C)[C@H]1C2    8.4 µM
